Biological target: TRAILR2 receptor on the surface of human tumor cells (human, UniProt O14763 56-440)
Experiment: cell-based or functional assay
METRIC: eff. (efficiency %), cytotoxic effect on NCI-H460 cells
Respond numerically; units are % and should not be typed.

Study these solved cases before continuing.
binder="Zapadcine-1b (antibody, V domains shown, MMAD coupled through linker Mc-Vc-PAB by thiol conventional coupling, cleavable; positions not given) VH: QVQLVQSGSELKKPGASVKVSCKASGYTFTDFSMNWVRQAPGQGLEWMGWINTETGEPTYADDFKGRFVFSLDTSVSTAYLQISSLKAEDTAVYYCARIDYWGQGTTVTVSS VL: DIVMTQSPLSLPVTPGEPASISCRSSQSLVHSNGNTYLHWYLQKPGQSPQLLIYKVSNRFSGVPDRFSGSGSGTDFTLKISRVEAEDVGVYYCFQSTHVPHTFGQGTKLEIKR" reported=93.3
binder="Zapadcine-1d (antibody, V domains shown, MMAF coupled through linker Mc-Vc-PAB by thiol conventional coupling, cleavable; positions not given) VH: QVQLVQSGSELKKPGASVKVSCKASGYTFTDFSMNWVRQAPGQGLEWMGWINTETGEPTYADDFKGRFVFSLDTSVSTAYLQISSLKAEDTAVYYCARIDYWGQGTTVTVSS VL: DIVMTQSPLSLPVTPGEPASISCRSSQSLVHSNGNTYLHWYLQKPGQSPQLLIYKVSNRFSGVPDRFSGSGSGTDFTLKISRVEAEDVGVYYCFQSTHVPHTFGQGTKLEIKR" reported=80.6
binder="Zapadcine-1c (antibody, V domains shown, MMAD coupled through linker Py-MAA by thiol bridge coupling, non-cleavable; positions not given) VH: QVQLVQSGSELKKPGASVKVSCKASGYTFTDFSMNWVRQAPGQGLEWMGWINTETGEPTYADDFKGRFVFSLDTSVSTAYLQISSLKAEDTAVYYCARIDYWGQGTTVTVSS VL: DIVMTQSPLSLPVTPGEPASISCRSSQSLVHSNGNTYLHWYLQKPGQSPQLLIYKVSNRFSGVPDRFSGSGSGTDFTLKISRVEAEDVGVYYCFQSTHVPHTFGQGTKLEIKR" reported=46.4

# evaluate next
Per the record, Zapadcine-1a (antibody, V domains shown, MMAD coupled through linker Py-Vc-PAB by thiol (disulfide) bridge coupling, cleavable; positions not given) VH: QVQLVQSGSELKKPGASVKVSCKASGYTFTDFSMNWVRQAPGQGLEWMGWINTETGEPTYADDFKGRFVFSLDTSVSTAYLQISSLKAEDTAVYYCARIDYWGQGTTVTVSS VL: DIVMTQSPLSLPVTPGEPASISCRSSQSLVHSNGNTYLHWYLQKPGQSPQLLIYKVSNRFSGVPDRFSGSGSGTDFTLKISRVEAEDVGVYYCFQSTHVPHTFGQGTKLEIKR has eff. (efficiency %), cytotoxic effect on NCI-H460 cells of 96.2

Values from patent US20200407457A1
